test: method code SF-HPLC, from DOI: 10.1016/s0021-9673(01)84554-4; conditions: pH 7.4
property.label: logD

compound: CCCCCCNC(=O)C1(O)C(C)CC2C3CCC4=CC(=O)C=CC4(C)C3(F)C(O)CC21C (centres undefined)
property.label: logD
test.result: 4.54
//
compound: CC1CC2C3CCC4=CC(=O)C=CC4(C)C3(F)C(O)CC2(C)C1(O)C(=O)NCCO (centres undefined)
property.label: logD
test.result: 1.51
//
compound: CC1CC2C3CCC4=CC(=O)C=CC4(C)C3(F)C(O)CC2(C)C1(O)C(=O)NCCCl (centres undefined)
property.label: logD
test.result: 2.73
//
compound: CC1CC2C3CCC4=CC(=O)C=CC4(C)C3(F)C(O)CC2(C)C1(O)C(=O)NC(C)(C)C (centres undefined)
property.label: logD
test.result: 3.2
//
compound: COC(=O)C(Cc1ccccc1)NC(=O)C1(O)C(C)CC2C3CCC4=CC(=O)C=CC4(C)C3(F)C(O)CC21C (centres undefined)
property.label: logD
test.result: 3.4

A = CC(C)CCNC(=O)C1(O)C(C)CC2C3CCC4=CC(=O)C=CC4(C)C3(F)C(O)CC21C (centres undefined)
B = CC1CC2C3CCC4=CC(=O)C=CC4(C)C3(F)C(O)CC2(C)C1(O)C(=O)NCC#N (centres undefined)
Q: Name the one with the greater logD value, either A or B as given. # reply format: chosen label
A: A
(A: 3.74, B: 1.57)
